# Tested on: caffeine-induced contraction of rabbit aorta strip depending on intracellular Ca^++
# assay info: Intracellular Ca++ antagonism: inhibition of caffeine-induced contraction of aorta strip in Ca-free/EGTA solution
# condition notes: Oryctolagus cuniculus; compound 10^-6 M; caffeine 20 mM; Ca++ 0 mM, EGTA 5 mM; read-out: Inhibitory percent (caffeine contraction)
experimental endpoint: inhibition at 1 µM
Field: value (include unit after the number)

Enquiry: # return recorded inhibition at 1 µM for input O=C1Nc2cc3c(cc2OC1CCCN1CCN(c2cccc(F)c2)CC1)CCCC3 (stereo not drawn)
Return: 61%

Enquiry: # return recorded inhibition at 1 µM for input CN1C(=O)C(CCCN2CCN(c3ccc(F)cc3)CC2)Oc2cc3c(cc21)CCCC3 (stereo not drawn)
Return: 42%

Enquiry: # return recorded inhibition at 1 µM for input O=C1Nc2cc3c(cc2OC1CCCN1CCN(c2ccccc2)CC1)CCCC3 (stereo not drawn)
Return: 59%

Enquiry: # return recorded inhibition at 1 µM for input O=C1Nc2cc3c(cc2OC1CCCN1CCN(c2ccc(F)cc2)CC1)CCCC3 (stereo not drawn)
Return: 60%

Enquiry: # return recorded inhibition at 1 µM for input COc1ccccc1N1CCN(CCCC2Oc3cc4c(cc3NC2=O)CCCC4)CC1 (stereo not drawn)
Return: 58%

Enquiry: # return recorded inhibition at 1 µM for input O=C1Nc2cc3c(cc2OC1CCCN1CCN(c2ccc(O)cc2)CC1)CCCC3 (stereo not drawn)
Return: 54%
